These measurements were taken from patent US20050130989A1.

testedTarget: tubulin (Sus scrofa, UniProt P02550+P02554)
Construct: Tubulin is purified from pig brain according to published methods
Sequence (P02550 whole entry): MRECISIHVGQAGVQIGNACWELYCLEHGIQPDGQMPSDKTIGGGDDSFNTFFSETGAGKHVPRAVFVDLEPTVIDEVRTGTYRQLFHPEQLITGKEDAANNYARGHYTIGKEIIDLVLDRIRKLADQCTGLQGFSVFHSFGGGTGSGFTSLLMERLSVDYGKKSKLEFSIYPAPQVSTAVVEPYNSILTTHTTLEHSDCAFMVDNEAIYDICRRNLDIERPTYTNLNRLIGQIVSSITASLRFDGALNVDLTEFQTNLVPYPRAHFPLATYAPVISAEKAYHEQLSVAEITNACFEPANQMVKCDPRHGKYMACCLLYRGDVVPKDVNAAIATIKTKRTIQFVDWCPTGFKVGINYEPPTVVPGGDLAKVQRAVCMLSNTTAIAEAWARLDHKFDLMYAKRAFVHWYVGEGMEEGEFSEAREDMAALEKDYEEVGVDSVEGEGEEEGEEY
Sequence (P02554 whole entry): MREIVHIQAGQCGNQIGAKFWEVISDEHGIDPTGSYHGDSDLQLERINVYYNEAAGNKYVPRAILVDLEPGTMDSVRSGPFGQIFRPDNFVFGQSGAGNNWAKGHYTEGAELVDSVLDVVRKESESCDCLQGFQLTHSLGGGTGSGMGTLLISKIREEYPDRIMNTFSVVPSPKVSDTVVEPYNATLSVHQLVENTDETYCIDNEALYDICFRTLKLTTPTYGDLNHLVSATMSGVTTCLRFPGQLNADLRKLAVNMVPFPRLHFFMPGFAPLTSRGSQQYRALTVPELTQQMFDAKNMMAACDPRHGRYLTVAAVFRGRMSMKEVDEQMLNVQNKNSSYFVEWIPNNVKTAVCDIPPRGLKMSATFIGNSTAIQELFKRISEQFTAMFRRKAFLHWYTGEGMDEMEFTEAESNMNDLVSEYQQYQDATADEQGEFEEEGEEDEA
assayDetails: Evaluation of the inhibition of tubulin polymerization (turbidimetry)
conditionsUsed: tubulin 10 μm (1 mg/ml), 37° C., turbidity at 350 nm; concentration that inhibits the rate of polymerization by 50%; read-out: Inhibition of tubulin polymerization IC 50 (μm)
Description: Tubulin is purified from pig brain according to published methods (Shelanski et al., 1973, Proc. Natl. Acad. Sci. USA, 70, 765-768. Weingarten et al., 1975, Proc. Natl. Acad. Sci. USA, 72, 1858-1862). […] The polymerization of tubulin to microtubules is monitored by turbidimetry as follows: the tubulin is adjusted to a concentration of 10 μm (1 mg/ml) in RB/2 30% glycerol buffer to which 1 mM GTP and 6 mM MgCl2 are added. […] The increase in the turbidity of the solution is monitored at 350 nm. […]
pIC50: −log10 of the molar value. Where a name gives a salt, the structure may show the parent alone.
measureName: pIC50

Cc1cc(C(=O)N2CCN(c3cccc(NC(=O)CCO)c3)CC2)n(-c2ccccc2)n1 [Example E128] | 5.52

P. O=Cc1cc(C(=O)N2CCN(c3cccc(Cl)c3)CC2)n(-c2ccccc2)n1 [Example E70]
Q. Cc1cc(C(=O)N2CCN(c3cccc(NCc4ccccc4)c3)CC2)n(-c2ccccc2)n1 [Example E32, hydrochloride]
R. COc1cc(OC)cc(N2CCN(C(=O)c3cc(CN)nn3-c3ccccc3)CC2)c1 [Example E120]
Task field, ranking: reported pIC50, descending order. Reply with the labels, ordered as the question asks. P, Q, R
(P: 5.89, Q: 5.51, R: 4.75)
